Reference for the values: PubChem BioAssay (NCI)

Test system: RXF 393 renal
PROTOCOL_SUMMARY: NCI-60 one-dose screen, 48 h
CONDITION_PARAMETERS: 10 µM unless noted
This is part of a sample that, as a whole, favours compounds with a hit. Of some 83,000 tested, about 20% had one in any assay. Active and inactive are the calls of the source. The calls were made as follows: active = growth percent below 10; inactive = the rest.
Labels: active, inactive

>>> print(df.to_string())
                                    compound  target_under_test     class
 0                CC(C)OC(=O)NNC(=O)c1ccncc1      RXF 393 renal  inactive
 1  CSc1nc(N)c(CNC(C)c2ccccc2)c(=O)n1C (stereo not given)      RXF 393 renal  inactive
 2               Nc1ccc(CCCCc2ccccc2)c(Cl)c1      RXF 393 renal  inactive
 3    CCOC(=O)c1ccc(-c2ccc3cc(OC)ccc3c2)nc1C      RXF 393 renal  inactive
 4  COc1ccc(-c2cc(-c3cc(OC)ccc3O)[nH]c(=O)c2C#N)cc1      RXF 393 renal  inactive
 5  Cn1ncc2c(Nc3ccc(Br)cc3)nc(Nc3ccc(Br)cc3)nc21      RXF 393 renal  inactive
 6  CNC(=O)c1c(NC(=O)c2ccc(C(C)(C)C)cc2)sc2c1CCC(=O)C2      RXF 393 renal    active
 7  COc1ccc(-c2cn(-c3cccc(C(=O)/C=C/c4cc(OC)c(OC)c(OC)c4)c3)c(=O)[nH]2)cc1      RXF 393 renal    active
 8  CN1C(=O)CCC(N2C(=O)c3cccc(NCCOCCOCCNC(=O)c4cc5c(o4)C(=O)c4ccccc4C5=O)c3C2=O)C1=O (stereo not given)      RXF 393 renal    active
 9  CC1(C)C(=O)/C(=C\c2cccnc2)C[C@]2(C)[C@H]3CC=C4[C@@H]5C[C@@](C)(C(=O)O)CC[C@]5(C)CC[C@@]4(C)[C@]3(C)CC[C@@H]12      RXF 393 renal  inactive
10      c1ccc2[nH]c(SSc3nc4ncncc4[nH]3)nc2c1      RXF 393 renal  inactive
11  O=C(Oc1ccc[nH]c1=O)c1cc([N+](=O)[O-])cc([N+](=O)[O-])c1      RXF 393 renal  inactive
12  CCCc1cc(=O)oc2c3c(c4c(c12)OC(C)(C)C=C4)O[C@@H](C)[C@H](C)C3=O      RXF 393 renal  inactive
13              Cc1cn(C2CCCCC2)c(=O)[nH]c1=O      RXF 393 renal  inactive
14  COc1cc2c(cc1OC)-c1ccc3cc4c(cc3c1N(CCN1CCCC1)C2)OCO4      RXF 393 renal    active
15  CCOc1ccc(S(=O)(=O)c2ccc(C)cc2)c2c1no[n+]2[O-]      RXF 393 renal  inactive
16      CN1CCN(C2=C(Cl)C(=O)c3ccccc3C2=O)CC1      RXF 393 renal  inactive
17  COc1cc2ccccc2cc1C(=O)NC(=S)Nc1ccc(-c2nc3ccccc3[nH]2)cc1      RXF 393 renal  inactive
18  O=C(Nc1ccccc1)c1sc(-c2cccc(C(F)(F)F)c2)cc1O      RXF 393 renal  inactive
19  COC(=O)/C(=C\c1ccc(OC)cc1)C(=O)N1c2ccccc2Sc2ccccc21      RXF 393 renal  inactive
20  C=C1c2c(C)nn(-c3ccc(O)cc3)c2N(C)C23C[C@@H]1C1(C)c4c(C)nn(-c5ccc(O)cc5)c4N(C)C(C)(C[C@H]12)C3 (stereo not given in full)      RXF 393 renal  inactive
21     Cc1cc(=O)[nH]c(N/N=C/c2cc(Br)ccc2O)n1      RXF 393 renal  inactive
22  Clc1ccc(-c2cn(-c3ccccc3)c(-c3ccccc3)n2)cc1      RXF 393 renal  inactive
23  O=C1C2=C(CCN(Cc3ccccc3)C2)N2CCN=C2N1Cc1ccc(C(F)(F)F)cc1      RXF 393 renal  inactive
24  COc1ccc(CN2C(=O)/C(=C\c3cc(OC)c(OC)c(OC)c3)c3ccccc32)cc1      RXF 393 renal    active
25           NC(=S)c1csc(CCNC(=O)c2ccccc2)n1      RXF 393 renal  inactive
26  CCn1c(Sc2nnc(Nc3ccccc3)s2)nc2c1c(=O)n(C)c(=O)n2C      RXF 393 renal  inactive
27                        NC(=S)N/N=C/C(=O)O      RXF 393 renal  inactive
28                       CC(C)(O)c1cccc(F)c1      RXF 393 renal  inactive
29  Nc1ccc(-c2cc3c(Nc4ccc(OCc5cccc(F)c5)c(Cl)c4)ncnc3s2)cc1      RXF 393 renal  inactive
30  CCCCn1c(=O)[nH]c(N)c(C(c2ccc(F)cc2)c2c(N)[nH]c(=O)n(CCCC)c2=O)c1=O      RXF 393 renal  inactive
31  O=C(C[C@@]1(O)C(=O)Nc2c(Cl)ccc(Cl)c21)c1ccc(C2CC2)cc1      RXF 393 renal    active
32  CCOC(=O)c1sc2ccc(NCc3nc[nH]c3C)cc2c1NC(=O)c1cc(OC)c(OC)c(OC)c1      RXF 393 renal  inactive
33      CC1(C)N=C(N)N=C(N)N1c1ccc(Cl)c(Cl)c1      RXF 393 renal  inactive
34  N#C/C(=C\c1ccc(Br)cc1)n1nnc2cc(Cl)c(Cl)cc21      RXF 393 renal    active
35  C=C1c2c(C)nn(-c3ccc(N)cc3)c2N(C)C23CC1C1(C)c4c(C)nn(-c5ccc(N)cc5)c4N(C)C(C)(CC12)C3 (stereo not given)      RXF 393 renal  inactive
36  O=C(NCCOCCOCCNc1cccc2c1C(=O)N(C1CCCNC1=O)C2=O)c1cc2c(o1)C(=O)c1ccccc1C2=O (stereo not given)      RXF 393 renal    active
37  Cc1cc(NS(=O)(=O)c2ccccc2)c(OS(=O)(=O)c2ccccc2)cc1C      RXF 393 renal  inactive
38  Cc1cc(-c2noc(C(F)(F)F)n2)ccc1N1CCN(c2cc(C(=O)N(C)C)no2)CC1      RXF 393 renal  inactive
39  COc1ccc(-c2nnc(-c3ccc4c(c3)nc(-c3ccccc3)n4C3CCCCC3)o2)cc1      RXF 393 renal  inactive
